Recorded measurements of log2 fold change of degron read counts, one per entry
Molecular target: T1, CRBN, Q96SW2;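 further: pooled lentiviral library of zinc finger degron-EGFP fusions in mCherry-positive Jurkat cells, FACS-sorted after compound exposure, with degron abundance counted by next-generation sequencing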
T1 chain: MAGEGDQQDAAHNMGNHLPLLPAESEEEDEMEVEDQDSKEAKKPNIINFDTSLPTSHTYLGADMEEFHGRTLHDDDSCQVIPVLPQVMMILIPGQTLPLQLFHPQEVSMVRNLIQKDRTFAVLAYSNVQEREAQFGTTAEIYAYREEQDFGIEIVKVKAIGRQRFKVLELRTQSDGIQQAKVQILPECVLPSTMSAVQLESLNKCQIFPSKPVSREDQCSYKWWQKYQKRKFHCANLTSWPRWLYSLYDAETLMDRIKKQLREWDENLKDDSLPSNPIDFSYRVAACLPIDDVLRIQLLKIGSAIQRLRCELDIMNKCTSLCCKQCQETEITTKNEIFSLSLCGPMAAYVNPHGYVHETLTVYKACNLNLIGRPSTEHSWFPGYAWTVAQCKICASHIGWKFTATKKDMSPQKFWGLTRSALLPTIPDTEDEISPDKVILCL
Assay: log2 fold change of degron read counts, EGFP-low vs EGFP+ sorted cells (limma voom), compound-induced degradation; higher = more compound-induced degradation of the degron-EGFP fusion; degrons are variants of IKZF1/3 zinc finger 2; compound dose not given here
Conditions: Jurkat; 18 h; compound: thalidomide
The full ranking holds about 8,300 sequences; the median of “log2 fold change of degron read counts, EGFP-low vs EGFP+ sorted cells (limma voom), compound-induced degradation” is about -1.1, and the highest 2% start at about 3.2. The entries come from a sample that favours the highest values as a whole.
Lab note: record the figure alone, no unit after it.

FHCPICGRQFTQKGNLLRHIKL [46F_47H_49P_50I_52G_53R_54Q_55F_67L_, Q9UKT9]; 0.286
FSCPICGAEFTQKGNLLRHIKL [46F_47S_49P_50I_52G_53A_54E_55F_67L_, Q9UKT9]; 1.11
FYCNICGAEFTQKGNLLRHIKL [46F_47Y_49N_50I_52G_53A_54E_55F_67L_, Q9UKT9]; -1.03

Please turn your attention to the following entry.
get_value(item= FQCNICGAEFTQKGNLLRHIKL [46F_47Q_49N_50I_52G_53A_54E_55F_67L_, Q9UKT9] , readout=log2 fold change of degron read counts) returns 3.24

Data provenance is the supplement of paper PMC12645437.
